Values compiled from ChEMBL document CHEMBL3864159.

- assayed system: Caspase-1 (Homo sapiens)
- Sequence (P29466 120-297 limits assumed): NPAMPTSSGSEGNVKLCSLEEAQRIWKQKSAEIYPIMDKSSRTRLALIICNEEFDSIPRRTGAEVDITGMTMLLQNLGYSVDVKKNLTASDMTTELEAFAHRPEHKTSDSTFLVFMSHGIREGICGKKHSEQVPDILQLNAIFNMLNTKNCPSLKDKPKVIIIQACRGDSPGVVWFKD
- Sequence (P29466 317-404 limits assumed): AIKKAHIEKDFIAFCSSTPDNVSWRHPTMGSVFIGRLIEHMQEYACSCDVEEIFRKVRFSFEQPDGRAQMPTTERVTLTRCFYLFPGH
- assay procedure: Inhibition of human recombinant N-terminal His-tagged DTT-activated caspase-1 expressed in Escherichia coli using Ac-WEHD-AMC as substrate preincubated for 30 mins followed by substrate addition by fluorescence assay
value type: pKi
pKi here is simply -log10 of the concentration when that concentration is written in mol/L.

Fill in: pKi of c1cncc(CN2CCN(c3cc(N4CCCC4)nc(N4CCCC4)n3)CC2)c1 is ___
6.27

Fill in: pKi of c1c(N2CCCC2)nc(N2CCCC2)nc1N1CCNCC1 is ___
6.89

Fill in: pKi of O=[N+]([O-])c1ccccc1CN1CCN(c2cc(N3CCCC3)nc(N3CCCC3)n2)CC1 is ___
6.64

Fill in: pKi of FC(F)(F)c1ccc(CN2CCN(c3cc(N4CCCC4)nc(N4CCCC4)n3)CC2)cc1 is ___
6.74

Fill in: pKi of C[C@]12C=CC(=O)C=C1CC[C@@H]1C2=CC[C@]2(C)[C@@H](C(=O)CN3CCN(c4cc(N5CCCC5)nc(N5CCCC5)n4)CC3)CC[C@@H]12 is ___
7.30

Fill in: pKi of c1ccc(CN2CCN(c3cc(N4CCCC4)nc(N4CCCC4)n3)CC2)cc1 is ___
6.70

Fill in: pKi of c1c(N2CCCC2)nc(N2CCCC2)nc1N1CCN(CC2CCCCC2)CC1 is ___
7.57

Fill in: pKi of c1cc(CN2CCN(c3cc(N4CCCC4)nc(N4CCCC4)n3)CC2)ccn1 is ___
6.52

Fill in: pKi of COc1cccc(CN2CCN(c3cc(N4CCCC4)nc(N4CCCC4)n3)CC2)c1 is ___
7.12

Fill in: pKi of FC(F)(F)c1cc(CN2CCN(c3cc(N4CCCC4)nc(N4CCCC4)n3)CC2)cc(C(F)(F)F)c1 is ___
6.69

Fill in: pKi of O=[N+]([O-])c1ccc(CN2CCN(c3cc(N4CCCC4)nc(N4CCCC4)n3)CC2)cc1 is ___
6.89

Fill in: pKi of O=C(c1ccccc1)c1ccc(CN2CCN(c3cc(N4CCCC4)nc(N4CCCC4)n3)CC2)cc1 is ___
7.23

Fill in: pKi of COc1cc(CN2CCN(c3cc(N4CCCC4)nc(N4CCCC4)n3)CC2)cc(OC)c1 is ___
7.31

Fill in: pKi of c1ccc(CCN2CCN(c3cc(N4CCCC4)nc(N4CCCC4)n3)CC2)cc1 is ___
7.80

---

- assayed system: Caspase-5 (Homo sapiens, UniProt P51878)
- Sequence (P51878 whole entry): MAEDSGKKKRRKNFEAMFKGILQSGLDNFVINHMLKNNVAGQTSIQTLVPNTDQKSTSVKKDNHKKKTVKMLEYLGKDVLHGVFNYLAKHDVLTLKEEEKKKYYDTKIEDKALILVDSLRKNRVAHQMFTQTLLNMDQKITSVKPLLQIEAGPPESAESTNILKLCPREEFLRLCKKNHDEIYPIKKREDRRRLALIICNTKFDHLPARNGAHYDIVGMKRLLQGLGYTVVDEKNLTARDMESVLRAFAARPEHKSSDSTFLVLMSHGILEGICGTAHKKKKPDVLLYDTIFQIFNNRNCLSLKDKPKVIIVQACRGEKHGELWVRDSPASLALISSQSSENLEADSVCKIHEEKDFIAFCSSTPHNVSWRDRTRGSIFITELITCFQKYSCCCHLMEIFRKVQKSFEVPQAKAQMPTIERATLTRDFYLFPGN
- assay procedure: Inhibition of human recombinant DTT-activated caspase-5 expressed in Escherichia coli using Ac-WEHD-AMC as substrate preincubated for 45 mins followed by substrate addition by fluorescence assay
value type: IC50 (nM)
Your answer is read as nM, so omit the unit and give the number.

Fill in: IC50 of c1cncc(CN2CCN(c3cc(N4CCCC4)nc(N4CCCC4)n3)CC2)c1 is ___
155
